Just for reference, ChEMBL document CHEMBL5058577 is where these values come from.

Reported values of Population Tubulin-Different-Phenotype (%) for individual entries
- System: Fibroblast
- assaySummary: Multiplex assay against human fibroblast
- Type: toxicity, cell-based
- studyConditions: 12 h, 10 µM, compound concentration 10 uM, replicate 1
Please give a number only; it is taken to be in %.

Answered cases to consult:
compound	valueReported
CCCCC1=NC2(CCCC2)C(=O)N1Cc1ccc(-c2ccccc2-c2nnn[nH]2)cc1	37
CN[C@@H](C)C(=O)N[C@H](C(=O)N1CCC[C@H]1C(=O)Nc1snnc1-c1ccccc1)C1CCCCC1	80
NCCc1cn(S(=O)(=O)c2c(Cl)nc3sccn23)c2ccccc12.O=C(O)C(=O)O	90
Br.CS(=O)(=O)Nc1c(O)ccc2c1CCCC2C1=NCCN1 (stereo unspecified)	21
CCCCC(=O)N(Cc1ccc(-c2ccccc2-c2nnn[nH]2)cc1)[C@H](C(=O)O)C(C)C	23

Now, please, on to the next compound.
Entry CC(C)(C)c1cc(NC(=O)Nc2ccc(-c3cn4c(n3)sc3cc(OCCN5CCOCC5)ccc34)cc2)no1 : reported Population Tubulin-Different-Phenotype (%) = ?
75

====

- System: HEK-293T
- assaySummary: Multiplex assay against HEK293T
- Assay type: toxicity, cell-based
- studyConditions: human, 24 h, 10 µM, compound concentration 10 uM, replicate 2
Reported values of Population Fragmented Nuclei (%) for individual entries
Please give a number only; it is taken to be in %.

Answered cases to consult:
molecule	studyTarget	unit	Population Fragmented Nuclei (%)
Cc1sc2c(c1C)C(c1ccc(Cl)cc1)=N[C@@H](CC(=O)NCCCCCCCCNC(=O)COc1cccc3c1C(=O)N(C1CCC(=O)NC1=O)C3=O)c1nnc(C)n1-2 (stereo partly drawn)	HEK-293T	%	9
Cc1cccc(NC(=O)CN2CCC(c3ccccn3)CC2)c1.Cl.Cl	HEK-293T	%	11
COc1cccc2c1c(NS(=O)(=O)c1ccc(Cl)s1)nn2Cc1cccc(CNC(=O)C(C)(C)O)c1	HEK-293T	%	9
CCCCCC(O)/C=C/[C@H]1C(=O)CC(O)C1C/C=C\CCCC(=O)O (stereo partly drawn)	HEK-293T	%	9
Cl.N=C(N)NC(=O)Cc1c(Cl)cccc1Cl [GUANFACINE HYDROCHLORIDE]	HEK-293T	%	6

Param readout= Population Fragmented Nuclei (%); system= HEK-293T; entry= O=C(NCCN1CCC(n2c(=O)[nH]c3cc(Cl)ccc32)CC1)c1ccc(F)cc1 [HALOPEMIDE] ; returns value.
9

Now the molecule Cl.NCCc1ccc(O)c(O)c1 [DOPAMINE HYDROCHLORIDE]
9

Now the molecule Cc1cnc(-c2cc(N3CCN(C(=O)CCS(C)(=O)=O)CC3)ncc2Cl)c(C)c1
7

Now the molecule C[C@H](N)COC(=O)[C@@H](CCCCN)NC(=O)Cc1c(-c2ccc3ccccc3c2)[nH]c2c1ccc1ccccc12
9

Now the molecule CC(=O)Nc1cccc2c1c(Sc1ccc(Cl)cc1)c(C)n2CC(=O)O
8

Now the molecule N#Cc1c(Oc2cccc(OS(=O)(=O)CCCC(F)(F)F)c2)cccc1C(F)(F)F
10

Now the molecule CC(C)(C)c1cc(NC(=O)Nc2ccc(-c3cn4c(n3)sc3cc(OCCN5CCOCC5)ccc34)cc2)no1
9

Now the molecule CN(C)C(=O)Cn1cc(-c2ccc(-c3cncc4ccccc34)cc2)cn1
10

Now the molecule COC[C@@H](c1ccc(C(F)(F)F)cc1)N1CCN(C2(C)CCN(C(=O)c3c(C)ncnc3C)CC2)C[C@@H]1C.O=C(O)/C=C\C(=O)O [VICRIVIROC MALEATE]
10
